- measured_target: Glucagon-like peptide 1 receptor (Homo sapiens)
- Sequence (P43220 whole entry): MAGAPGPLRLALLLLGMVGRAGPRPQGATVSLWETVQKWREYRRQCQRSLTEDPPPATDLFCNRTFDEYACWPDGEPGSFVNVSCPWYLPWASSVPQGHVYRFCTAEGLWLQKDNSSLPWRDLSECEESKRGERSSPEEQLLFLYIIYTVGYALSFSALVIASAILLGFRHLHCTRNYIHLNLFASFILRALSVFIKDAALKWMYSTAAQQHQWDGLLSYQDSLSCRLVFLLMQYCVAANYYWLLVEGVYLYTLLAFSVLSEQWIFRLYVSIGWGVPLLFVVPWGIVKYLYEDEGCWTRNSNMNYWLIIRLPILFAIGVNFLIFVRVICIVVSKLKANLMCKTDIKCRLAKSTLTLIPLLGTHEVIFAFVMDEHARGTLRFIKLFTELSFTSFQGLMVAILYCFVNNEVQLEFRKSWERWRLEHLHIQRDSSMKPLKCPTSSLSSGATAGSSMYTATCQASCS
readout_type: EC50 (µM)
Give bare numbers, in µM.

Just so you know, measured EC50 for CCn1cncc1Cn1c(CN2CCC(c3cccc(OCc4ccc(F)cc4F)n3)CC2)nc2ccc(C(=O)O)cc21 came out at 0.61

---

These compounds were tested on Glucagon-like peptide 1 receptor (Homo sapiens); pEC50 is the recorded read-out.
Numbers only, as −log10 of the molar value.

Answered cases to consult:
smiles_input=Cn1c(CN2CCC(c3cccc(OCc4ccc(Cl)cc4F)n3)CC2)nc2ccncc21 readout_type=pEC50 reported_value=7.11
smiles_input=Cn1c(CN2CCC(c3cccc(OCc4ccc(Cl)cc4F)n3)CC2)nc2nccc(NCC(=O)O)c21 readout_type=pEC50 reported_value=7.36

Value of measured pEC50 for the entry Cn1c(CN2CCC(c3cccc(OCc4ccc(Cl)cc4F)n3)CC2)nc2ccc(C(=O)O)nc21 : 8.17

---

- measured_target: Glucagon-like peptide 1 receptor (Homo sapiens)
- test_protocol: Agonist activity at human GLP-1R expressed in PathHunter CHO-K1 GLP1R beta-arrestin-2 cell assessed as induction of beta-arrestin 2 recruitment incubated for 90 mins in presence of BETP by PathHunter assay
- Format: functional, cell-based
readout_type: pEC50
One number for each entry, as −log10 of the molar value.

Worked examples, 2 compounds total:
smiles_input=Cn1c(CN2CCC(c3cccc(OCc4ccc(Cl)cc4F)n3)CC2)nc2ccc(C(=O)O)nc21 reported_value=5.55
smiles_input=Cn1c(CN2CCC(c3cccc(OCc4ccc(Cl)cc4F)n3)CC2)nc2ccncc21 reported_value=5.02

Now, please, on to the next compound.
// Cn1c(CN2CCC(c3cccc(OCc4ccc(Cl)cc4F)n3)CC2)nc2nccc(NCC(=O)O)c21 : pEC50 value = 5.82

---

- test_protocol: Oral bioavailability in Wistar Han rat at 100 mg/kg measured upto 24 hrs by LC-MS/MS analysis
- Assay type: ADME, organism-based
- reported_conditions: in vivo
readout_type: bioavailability (%)
Answers are plain numbers, in %.

Measured bioavailability, N#Cc1ccc(COc2cccc(C3CCN(Cc4nc5ccc(C(=O)O)cc5n4C[C@@H]4CCO4)CC3)n2)c(F)c1 [DANUGLIPRON] : 39

---

- test_protocol: in vitro
- reported_conditions: human, hepatocytes
readout_type: hepatocyte CLint (µL/min/1e6 cells)
One number for each entry, in µL/min/1e6 cells.

Sample records with hepatocyte CLint:
smiles_input=Cn1c(CN2CCC(c3cccc(OCc4ccc(Cl)cc4F)n3)CC2)nc2ccncc21 reported_value=55
smiles_input=N#Cc1ccc(COc2cccc(C3CCN(Cc4nc5ccc(C(=O)O)cc5n4C[C@@H]4CCO4)CC3)n2)c(F)c1 reported_value=6.9
smiles_input=Cn1c(CN2CCC(c3nc(OCc4ccc(Cl)cc4F)ncc3F)CC2)nc2ccccc21 reported_value=48
smiles_input=Cn1c(CN2CCC(c3cccc(OCc4ccc(Cl)cc4F)n3)CC2)nc2nccc(NCC(=O)O)c21 reported_value=37

Lab note: measured hepatocyte CLint of Cn1c(CN2CCC(c3cccc(OCc4ccc(Cl)cc4F)n3)CC2)nc2ccc(C(=O)O)nc21 was 31

---

Entries with their measured EC50, system Glucagon-like peptide 1 receptor (Homo sapiens):
Answers are plain numbers, in nM.

smiles_input=CCn1cncc1Cn1c(CN2CCC(c3cccc(OCc4ccc(F)cc4F)n3)CC2)nc2ccc(C(=O)O)cc21 reported_value=8.6

Moving on to the next compound.
Field EC50 (entry Cn1c(CN2CCC(c3cccc(OCc4ccc(Cl)cc4F)n3)CC2)nc2ccc(C(=O)O)nc21 ) reads 2100
